Molecular target: KCNQ 2/3 channels (HEK293 cells stably expressing human KCNQ2 and KCNQ3 subunits) (Homo sapiens, UniProt O43525+O43526)
Construct: expressed in transfected cells; host or cells: HEK293
Assay: KCNQ2/3 channel activation, thallium flux FLIPR assay with BTC-AM dye
Format: cell-based
Details: HEK293; maximum response relative to the response produced by 10 μM retigabine (set at 100%); read-out: Max. %
measured.quantity: Emax (%)
Report the figure in % without appending any unit label.

Take a look at these entries with their results.
>>> df
                                   molecule  numeric_readout
0  Cc1ccc(-c2nn(NC(=O)Cc3ccc(Cl)cc3)c(=O)c3ccccc23)c(C)c1 [Example 161]              145
1  Cc1ccc(-c2nn(NC(=O)CC34CC5CC(CC(C5)C3)C4)c(=O)c3ccccc23)cc1 [Example 138]              129
2  O=C(C[C@@H]1C[C@@H]2CC[C@H]1C2)Nn1nc(-c2ccc(C(F)(F)F)cc2)c2ccccc2c1=O [Example 147]              154

Here is the next item to consider.
// lookup Emax for O=C(Nn1nc(-c2ccc(Cl)cc2)c2ccccc2c1=O)[C@@H]1C[C@H]1c1ccccc1 (relative stereo) [Example 120]
103
